# PROTOCOL DESCRIPTION: Solubility (wt %) of compounds in chloroform and toluene
# Format: physicochemical
# Design: key: ◯: ∘, completely soluble; Δ, a slight amount remaining insoluble; X, a considerable amount remaining insoluble
# TEST PARAMETERS: chloroform, 5% soln. (wt %)
REPORTED ENDPOINT: Solubility, Chloroform 5% soln.

MOLECULE | READOUT VALUE
CS(=O)(=O)[N-]c1cccc2cccnc12.CS(=O)(=O)[N-]c1cccc2cccnc12.[Zn+2] | X
c1cnc2c([O][Al]([O]c3cccc4cccnc34)[O]c3cccc4cccnc34)cccc2c1 [Alq3, aluminum-8-hydroxyquinoline complex] | X
CCCCS(=O)(=O)[N-]c1cccc2cccnc12.CCCCS(=O)(=O)[N-]c1cccc2cccnc12.[Zn+2] | X
CCCCCCCCS(=O)(=O)[N-]c1ccccc1-c1nc2ccccc2o1.CCCCCCCCS(=O)(=O)[N-]c1ccccc1-c1nc2ccccc2o1.[Zn+2] | ◯

---

# PROTOCOL DESCRIPTION: Solubility (wt %) of compounds in chloroform and toluene
# Assay type: physicochemical
# Design: key: ◯: ∘, completely soluble; Δ, a slight amount remaining insoluble; X, a considerable amount remaining insoluble
# TEST PARAMETERS: toluene, 0.1% soln. (wt %)

COMPOUND | Solubility, Toluene 0.1% soln.
CS(=O)(=O)[N-]c1cccc2cccnc12.CS(=O)(=O)[N-]c1cccc2cccnc12.[Zn+2] | X
CCCCCCCCS(=O)(=O)[N-]c1ccccc1-c1nc2ccccc2o1.CCCCCCCCS(=O)(=O)[N-]c1ccccc1-c1nc2ccccc2o1.[Zn+2] | ◯
CCCCS(=O)(=O)[N-]c1cccc2cccnc12.CCCCS(=O)(=O)[N-]c1cccc2cccnc12.[Zn+2] | X
c1cnc2c([O][Al]([O]c3cccc4cccnc34)[O]c3cccc4cccnc34)cccc2c1 [Alq3, aluminum-8-hydroxyquinoline complex] | X

---

# PROTOCOL DESCRIPTION: Solubility (wt %) of compounds in chloroform and toluene
# Assay type: physicochemical
# Parameters: key: ◯: ∘, completely soluble; Δ, a slight amount remaining insoluble; X, a considerable amount remaining insoluble
# TEST PARAMETERS: chloroform, 1% soln. (wt %)
REPORTED ENDPOINT: Solubility, Chloroform 1% soln.

COMPOUND | READOUT VALUE
CS(=O)(=O)[N-]c1cccc2cccnc12.CS(=O)(=O)[N-]c1cccc2cccnc12.[Zn+2] [Compound M] | X
CCCCCCCCS(=O)(=O)[N-]c1ccccc1-c1nc2ccccc2o1.CCCCCCCCS(=O)(=O)[N-]c1ccccc1-c1nc2ccccc2o1.[Zn+2] [Compound 6a] | ◯
c1cnc2c([O][Al]([O]c3cccc4cccnc34)[O]c3cccc4cccnc34)cccc2c1 [Alq3, aluminum-8-hydroxyquinoline complex] | X
CCCCS(=O)(=O)[N-]c1cccc2cccnc12.CCCCS(=O)(=O)[N-]c1cccc2cccnc12.[Zn+2] [Compound N] | Δ

---

# PROTOCOL DESCRIPTION: Solubility (wt %) of compounds in chloroform and toluene
# Format: physicochemical
# Set-up: key: ◯: ∘, completely soluble; Δ, a slight amount remaining insoluble; X, a considerable amount remaining insoluble
# TEST PARAMETERS: chloroform, 0.1% soln. (wt %)
REPORTED ENDPOINT: Solubility, Chloroform 0.1% soln.

COMPOUND | READOUT VALUE
CS(=O)(=O)[N-]c1cccc2cccnc12.CS(=O)(=O)[N-]c1cccc2cccnc12.[Zn+2] | Δ
CCCCS(=O)(=O)[N-]c1cccc2cccnc12.CCCCS(=O)(=O)[N-]c1cccc2cccnc12.[Zn+2] | ◯
CCCCCCCCS(=O)(=O)[N-]c1ccccc1-c1nc2ccccc2o1.CCCCCCCCS(=O)(=O)[N-]c1ccccc1-c1nc2ccccc2o1.[Zn+2] | ◯
c1cnc2c([O][Al]([O]c3cccc4cccnc34)[O]c3cccc4cccnc34)cccc2c1 [Alq3, aluminum-8-hydroxyquinoline complex] | Δ

---

# PROTOCOL DESCRIPTION: Solubility (wt %) of compounds in chloroform and toluene
# Format: physicochemical
# Set-up: key: ◯: ∘, completely soluble; Δ, a slight amount remaining insoluble; X, a considerable amount remaining insoluble
# TEST PARAMETERS: chloroform, 10% soln. (wt %)

COMPOUND | Solubility, Chloroform 10% soln.
c1cnc2c([O][Al]([O]c3cccc4cccnc34)[O]c3cccc4cccnc34)cccc2c1 [Alq3, aluminum-8-hydroxyquinoline complex] | X
CCCCCCCCS(=O)(=O)[N-]c1ccccc1-c1nc2ccccc2o1.CCCCCCCCS(=O)(=O)[N-]c1ccccc1-c1nc2ccccc2o1.[Zn+2] | ◯
CS(=O)(=O)[N-]c1cccc2cccnc12.CS(=O)(=O)[N-]c1cccc2cccnc12.[Zn+2] | X
CCCCS(=O)(=O)[N-]c1cccc2cccnc12.CCCCS(=O)(=O)[N-]c1cccc2cccnc12.[Zn+2] | X

---

# PROTOCOL DESCRIPTION: Solubility (wt %) of compounds in chloroform and toluene
# Type: physicochemical
# Design: key: ◯: ∘, completely soluble; Δ, a slight amount remaining insoluble; X, a considerable amount remaining insoluble
# TEST PARAMETERS: toluene, 1% soln. (wt %)

MOLECULE | Solubility, Toluene 1% soln.
c1cnc2c([O][Al]([O]c3cccc4cccnc34)[O]c3cccc4cccnc34)cccc2c1 [Alq3, aluminum-8-hydroxyquinoline complex] | X
CS(=O)(=O)[N-]c1cccc2cccnc12.CS(=O)(=O)[N-]c1cccc2cccnc12.[Zn+2] [Compound M] | X
CCCCS(=O)(=O)[N-]c1cccc2cccnc12.CCCCS(=O)(=O)[N-]c1cccc2cccnc12.[Zn+2] [Compound N] | X
CCCCCCCCS(=O)(=O)[N-]c1ccccc1-c1nc2ccccc2o1.CCCCCCCCS(=O)(=O)[N-]c1ccccc1-c1nc2ccccc2o1.[Zn+2] [Compound 6a] | ◯

---

# PROTOCOL DESCRIPTION: Solubility (wt %) of compounds in chloroform and toluene
# Type: physicochemical
# Parameters: key: ◯: ∘, completely soluble; Δ, a slight amount remaining insoluble; X, a considerable amount remaining insoluble
# TEST PARAMETERS: toluene, 5% soln. (wt %)
REPORTED ENDPOINT: Solubility, Toluene 5% soln.

MOLECULE | REPORTED ENDPOINT | READOUT VALUE
c1cnc2c([O][Al]([O]c3cccc4cccnc34)[O]c3cccc4cccnc34)cccc2c1 [Alq3, aluminum-8-hydroxyquinoline complex] | Solubility, Toluene 5% soln. | X
CS(=O)(=O)[N-]c1cccc2cccnc12.CS(=O)(=O)[N-]c1cccc2cccnc12.[Zn+2] | Solubility, Toluene 5% soln. | X
CCCCCCCCS(=O)(=O)[N-]c1ccccc1-c1nc2ccccc2o1.CCCCCCCCS(=O)(=O)[N-]c1ccccc1-c1nc2ccccc2o1.[Zn+2] | Solubility, Toluene 5% soln. | Δ
CCCCS(=O)(=O)[N-]c1cccc2cccnc12.CCCCS(=O)(=O)[N-]c1cccc2cccnc12.[Zn+2] | Solubility, Toluene 5% soln. | X
